Each recorded value in this set is attributed to the CheMixHub drug solubility set.

- testName: xn = mol fraction of the nth substance listed, in the solute-free solvent
- conditionParameters: 303.15 K; x2 = 0.4772
metricName: solubility (g/100 g solution)
Just the number, please, no unit after it.

INPUT: Tell me its solubility (g/100 g solution) given CC(C)OC(=O)C(C)NP(=O)(OCC1OC(n2ccc(=O)[nH]c2=O)C(C)(F)C1O)Oc1ccccc1 (centres undefined) + CCO + O as the entry.
OUTPUT: 28.3

INPUT: Give reported solubility (g/100 g solution) value for COc1cc2c(cc1OC)-c1cc3ccc(OC)c(OC)c3c[n+]1CC2.[Cl-] + CCO + O
OUTPUT: 4.16

INPUT: Identify solubility (g/100 g solution) associated with the compound Nc1cccc(S(=O)(=O)c2cccc(N)c2)c1 + CCO + O
OUTPUT: 1.62

INPUT: Could you please provide reported solubility (g/100 g solution) for Cc1[nH]c(=O)c(C#N)cc1-c1ccncc1 + CCO + O ? Thanks!
OUTPUT: 0.00717

====

- testName: xn = mol fraction of the nth substance listed, in the solute-free solvent
- conditionParameters: 298.15 K; x2 = 0.3
Give solubility (g/100 g solution) for every item shown.
Number only, no unit.

INPUT: Give the measured solubility (g/100 g solution) for OCCN(CCO)c1nc(N2CCCCC2)c2nc(N(CCO)CCO)nc(N3CCCCC3)c2n1 + CCO + O
OUTPUT: 1.81

INPUT: Give a short answer stating reported solubility (g/100 g solution) for OCCN(CCO)c1nc(N2CCCCC2)c2nc(N(CCO)CCO)nc(N3CCCCC3)c2n1 + CC(C)O + O .
OUTPUT: 6.62

INPUT: Read the entry Cc1ncc(C[n+]2csc(CCO)c2C)c(N)n1.O=[N+]([O-])[O-] + O + CO and write its reported solubility (g/100 g solution).
OUTPUT: 0.951

INPUT: Let me know recorded solubility (g/100 g solution) for CCCCCOC(=O)Nc1nc(=O)n(C2OC(C)C(O)C2O)cc1F (centres undefined) + CCOC(C)=O + CCCCCC , thanks.
OUTPUT: 0.113

INPUT: Given the compound OCCN(CCO)c1nc(N2CCCCC2)c2nc(N(CCO)CCO)nc(N3CCCCC3)c2n1 + CO + O , write its reported solubility (g/100 g solution).
OUTPUT: 0.0712

INPUT: Entry CCCCCOC(=O)Nc1nc(=O)n(C2OC(C)C(O)C2O)cc1F (centres undefined) + CCOC(C)=O + CCCCCCC needs its solubility (g/100 g solution) filled in; supply it.
OUTPUT: 0.0629

INPUT: For the compound S=c1[nH]ncs1 + CO + O , give its measured solubility (g/100 g solution) value.
OUTPUT: 4.42

INPUT: Consider the compound Cc1ncc(C[n+]2csc(CCO)c2C)c(N)n1.O=[N+]([O-])[O-] + O + CC(C)O and give its recorded solubility (g/100 g solution).
OUTPUT: 0.0744

INPUT: Read off the recorded solubility (g/100 g solution) for Cc1ncc(C[n+]2csc(CCO)c2C)c(N)n1.O=[N+]([O-])[O-] + O + CC(C)=O
OUTPUT: 0.118

====

- testName: xn = mol fraction of the nth substance listed, in the solute-free solvent
- conditionParameters: 298.15 K; x2 = 0.5
Assign class by solubility (g/100 g solution): not lower than 10 means label 1; lower than 10 means label 0.

INPUT: Entry OCCN(CCO)c1nc(N2CCCCC2)c2nc(N(CCO)CCO)nc(N3CCCCC3)c2n1 + CC(C)O + O : is its solubility (g/100 g solution) no less than 10?
OUTPUT: label 1

INPUT: Does S=c1[nH]ncs1 + CCO + O have a reported solubility (g/100 g solution) of at least 10?
OUTPUT: label 1

INPUT: Form field: solubility (g/100 g solution) at least 10? Entry: OCCN(CCO)c1nc(N2CCCCC2)c2nc(N(CCO)CCO)nc(N3CCCCC3)c2n1 + CCO + O
OUTPUT: label 0

INPUT: Answer whether solubility (g/100 g solution) of Cc1ncc(C[n+]2csc(CCO)c2C)c(N)n1.O=[N+]([O-])[O-] + O + CO is greater than or equal to 10.
OUTPUT: label 0

INPUT: Evaluate S=c1[nH]ncs1 + CO + O : solubility (g/100 g solution) at minimum 10?
OUTPUT: label 0

INPUT: Could you verify whether the entry Cc1ncc(C[n+]2csc(CCO)c2C)c(N)n1.O=[N+]([O-])[O-] + O + CC(C)=O shows solubility (g/100 g solution) of no less than 10?
OUTPUT: label 0

INPUT: Reported solubility (g/100 g solution) reaches at least 10 for S=c1[nH]ncs1 + CCCO + O ?
OUTPUT: label 1

INPUT: Is the recorded value of solubility (g/100 g solution) equal to or greater than 10 for this compound? OCCN(CCO)c1nc(N2CCCCC2)c2nc(N(CCO)CCO)nc(N3CCCCC3)c2n1 + CO + O
OUTPUT: label 0

INPUT: Given the entry CCCCCOC(=O)Nc1nc(=O)n(C2OC(C)C(O)C2O)cc1F (stereo unspecified) + CCOC(C)=O + CCCCCCC , answer whether its solubility (g/100 g solution) meets or surpasses 10.
OUTPUT: label 0

INPUT: Please indicate if the recorded solubility (g/100 g solution) for Cc1ncc(C[n+]2csc(CCO)c2C)c(N)n1.O=[N+]([O-])[O-] + O + CC(C)O meets or exceeds 10.
OUTPUT: label 0

INPUT: Hello, I need to know if S=c1[nH]ncs1 + CC(C)=O + O has measured solubility (g/100 g solution) not below 10. Thanks!
OUTPUT: label 1

====

- testName: xn = mol fraction of the nth substance listed, in the solute-free solvent
- conditionParameters: 283.15 K; x2 = 0.8
Provide the recorded solubility (g/100 g solution) for the entries that follow.
// print number alone

INPUT: Return value of solubility (g/100 g solution) for input CCCCCOC(=O)Nc1nc(=O)n(C2OC(C)C(O)C2O)cc1F (stereo not drawn) + CCOC(C)=O + CCCCCCC , no commentary.
OUTPUT: 0.609

INPUT: In one line, give reported solubility (g/100 g solution) of the entry S=c1[nH]ncs1 + CCCO + O .
OUTPUT: 8.6

INPUT: Retrieve solubility (g/100 g solution) measured for CC(N)C(=O)O (stereo not drawn) + O + CCCO and print it.
OUTPUT: 2.39

INPUT: Supply recorded solubility (g/100 g solution) for S=c1[nH]ncs1 + CC(C)=O + O here.
OUTPUT: 24.5

INPUT: Output solubility (g/100 g solution) of S=c1[nH]ncs1 + CO + O
OUTPUT: 10.1

INPUT: Note solubility (g/100 g solution) for the compound shown: CC(N)C(=O)O (stereo not drawn) + O + CC(C)=O
OUTPUT: 1.03

INPUT: Provide solubility (g/100 g solution) value for the following compound: S=c1[nH]ncs1 + CCO + O
OUTPUT: 10.1

INPUT: Output solubility (g/100 g solution) of Cc1ncc(C[n+]2csc(CCO)c2C)c(N)n1.O=[N+]([O-])[O-] + O + CO
OUTPUT: 1.43

INPUT: Identify measured solubility (g/100 g solution) corresponding to CC(N)C(=O)O (stereo not drawn) + O + CC(C)O
OUTPUT: 1.58

INPUT: Specify reported solubility (g/100 g solution) for the compound shown: CC(N)C(=O)O (stereo not drawn) + O + CO
OUTPUT: 3.46

INPUT: Identify the reported solubility (g/100 g solution) for the following entry. Cc1ncc(C[n+]2csc(CCO)c2C)c(N)n1.O=[N+]([O-])[O-] + O + CC(C)=O
OUTPUT: 1.8

INPUT: Please report solubility (g/100 g solution) for the following compound: CC(N)C(=O)O (stereo not drawn) + O + CCO
OUTPUT: 1.98

INPUT: Provide only the value of recorded solubility (g/100 g solution) for Cc1ncc(C[n+]2csc(CCO)c2C)c(N)n1.O=[N+]([O-])[O-] + O + CC(C)O
OUTPUT: 1.15

====

Consider the following molecules; for each one, report its solubility (g/100 g solution).
- testName: xn = mol fraction of the nth substance listed, in the solute-free solvent
- conditionParameters: 318.15 K; x2 = 0.4772

INPUT: Quick one: give measured solubility (g/100 g solution) for Cc1[nH]c(=O)c(C#N)cc1-c1ccncc1 + CCO + O
OUTPUT: 0.0105

INPUT: Give recorded solubility (g/100 g solution). Nc1cccc(S(=O)(=O)c2cccc(N)c2)c1 + CCO + O
OUTPUT: 2.69

INPUT: Look up solubility (g/100 g solution) of COc1cc2c(cc1OC)-c1cc3ccc(OC)c(OC)c3c[n+]1CC2.[Cl-] + CCO + O and report it.
OUTPUT: 6.91

INPUT: Look up and state reported solubility (g/100 g solution) for CC(C)OC(=O)C(C)NP(=O)(OCC1OC(n2ccc(=O)[nH]c2=O)C(C)(F)C1O)Oc1ccccc1 (centres undefined) + CCO + O
OUTPUT: 41.3
